# Tested on: Meloidogyne hapla J2
# Assay notes: proportion of mobile M. hapla J2 relative to DMSO control (fraction of DMSO control); higher = more viable, less nematicidal, active = 0.7 or less
# Condition details: 60 µM; 5 days; temperature: 20 °C
Test readout: proportion of mobile M. hapla J2
Lab note: record just the number, no unit beside it.

Please review the entries below; each comes with its answer.
INSERT INTO measurements (structure_smiles, measurement) VALUES
  ('COc1ccc(-c2nnc(SCc3c(Cl)cccc3Cl)o2)cc1', 1),
  ('CCOc1ccccc1-c1nc(-c2cccc(C)c2)no1', 0.982);

Task: Lookup: proportion of mobile M. hapla J2 / Meloidogyne hapla J2 / Cc1ccccc1-c1noc(-c2ccccc2OCC(N)=O)n1
Output: 0.993

----------
# System: Meloidogyne hapla J2
# Assay notes: proportion of mobile M. hapla J2 relative to DMSO control (fraction of DMSO control); higher = more viable, less nematicidal, active = 0.7 or less
# Condition details: 60 µM; 5 days; temperature: 20 °C
Write down the outcome that applies. Available outcomes: t (active), f (inactive)

Recorded results for 4 compounds are shown here.
INSERT INTO assay_data (structure_smiles, study_target, class_name) VALUES
  ('CC(C)CCC(=O)Nc1ccccc1-c1nc(-c2ccncc2)no1', 'Meloidogyne hapla J2', 'f'),
  ('Cc1ccc(OCc2nc(-c3ccc4c(c3)OCO4)no2)cc1C', 'Meloidogyne hapla J2', 'f'),
  ('N#Cc1ccc(CSc2nnc(-c3ccncc3)o2)cc1', 'Meloidogyne hapla J2', 'f'),
  ('O=C(Nc1ccc(-c2noc(COc3ccccc3Cl)n2)cc1)c1ccccn1', 'Meloidogyne hapla J2', 'f');

Task: // param item: CN(C(=O)CSc1nnc(-c2ccccc2)o1)c1ccccc1 ; yields the recorded call
Output: f

Task: One more compound: CCOc1ccccc1-c1nc(-c2ccc(F)cc2)no1
Output: f

Task: Let us now turn to Ic1ccc(CSc2nnc(-c3ccccc3)o2)cc1
Output: f

Task: // repeat for Clc1ccccc1-c1noc(-c2cccnc2)n1 and report
Output: f

Task: Please answer likewise for COc1ccc(-c2noc(-c3cccc(F)c3)n2)cc1
Output: f

Task: And for O=C(CSc1nnc(-c2ccc(Br)cc2)o1)OCc1ccccc1 ?
Output: f

Task: Check Clc1ccc(CSc2nnc(-c3ccccc3Cl)o2)cc1 too.
Output: f

Task: Please give the result for Cc1ccc(-c2noc(COc3cc(C)cc(C)c3)n2)cc1 too.
Output: f

----------
# Test system: Ditylenchus dipsaci
# Assay notes: proportion of mobile D. dipsaci (mixed stage) relative to DMSO control (fraction of DMSO control); higher = more viable, less nematicidal, active = 0.86 or less; extreme values may be limits of the assay
# Condition details: 60 µM; 5 days; temperature: 20 °C
Allowed answers: class 1 (active), class 0 (inactive)

Consider the following illustrative entries.
INSERT INTO assay_data (compound, class_name) VALUES
  ('Clc1ccc(SCc2nc(-c3ccccn3)no2)cc1', 'class 0'),
  ('Fc1ccccc1-c1nc(-c2ccc(Cl)cc2)no1', 'class 0'),
  ('Cc1ccc(OCc2nc(-c3ccccc3)no2)cc1C', 'class 0'),
  ('CCOc1ccccc1-c1nc(-c2ccc(NC(=O)c3ccncc3)cc2)no1', 'class 0'),
  ('COc1cccc(-c2nnc(SCC(=O)Nc3cccc(C(F)(F)F)c3)o2)c1', 'class 0'),
  ('O=C(CSc1nnc(-c2ccccc2Cl)o1)Nc1ccc(F)cc1', 'class 0'),
  ('CCOc1ccccc1-c1nnc(SCC(=O)Nc2nc(C)cs2)o1', 'class 0'),
  ('Cc1ccoc1-c1nnc(-c2ccco2)o1', 'class 1'),
  ('CCOc1ccc(-c2nc(-c3ccccc3)no2)cc1', 'class 0'),
  ('Cc1ccc(-c2nnc(SCc3ccccc3)o2)cc1', 'class 0');

Task: Check the results log: what was the call for Clc1ccc(-c2nc(-c3cccnc3)no2)c(Cl)c1 ?
Output: class 0

Task: Similarly, COc1ccc(Cl)cc1-c1nnc(SCC(=O)Nc2nccs2)o1 ?
Output: class 0

Task: Try CCc1nnc(NC(=O)CSc2nnc(-c3ccc(Cl)cc3Cl)o2)s1 next.
Output: class 0

Task: Similarly, Cc1cc(OCc2nc(-c3ccccn3)no2)ccc1Br ?
Output: class 0

Task: Again, but for Cc1cc(C)c(C)c(OCc2nc(-c3ccccc3)no2)c1
Output: class 0

Task: Another: O=C(CSc1nnc(-c2ccccc2Cl)o1)Nc1nccs1
Output: class 0

Task: And what about the compound Cc1ccc(SC(C)c2nc(-c3ccncc3)no2)cc1 (configuration not stated) ?
Output: class 0

----------
# Tested on: Meloidogyne hapla J2
# Assay notes: proportion of mobile M. hapla J2 relative to DMSO control (fraction of DMSO control); higher = more viable, less nematicidal, active = 0.7 or less
# Condition details: 60 µM; 5 days; temperature: 20 °C
Test readout: proportion of mobile M. hapla J2
Give only the figure.

INSERT INTO assay_data (compound, measurement) VALUES
  ('Cc1cc(OCc2nc(-c3ccncc3)no2)ccc1Cl', 0.921);

Task: # value lookup — system Meloidogyne hapla J2, readout proportion of mobile M. hapla J2, item COc1ccc(CC(=O)Nc2ccc(-c3noc(COc4cccc(C)c4C)n3)cc2)cc1
Output: 0.88

Task: Do the same for COc1ccccc1NC(=O)c1ccccc1-c1nc(-c2ccccc2F)no1 please
Output: 1.02

Task: Ok, now COc1ccccc1-c1nc(-c2ccccc2Cl)no1
Output: 0.899

Task: Entry O=C(CSc1nnc(-c2ccc(Cl)cc2)o1)Nc1ccc(F)cc1 please
Output: 0.912

Task: Try this compound too: CC(C)c1ccc(OCc2nc(-c3ccccn3)no2)cc1
Output: 1.01

Task: Same question, COc1ccc(-c2noc(COc3ccc(C)cc3C)n2)cc1 this time
Output: 0.93

----------
# Test system: Meloidogyne hapla J2
# Assay notes: proportion of mobile M. hapla J2 relative to DMSO control (fraction of DMSO control); higher = more viable, less nematicidal, active = 0.7 or less
# Condition details: 60 µM; 5 days; temperature: 20 °C
# binarize proportion of mobile M. hapla J2: threshold 0.9 inclusive, high side class 1, low side class 0

Solved entries (count: 2):
INSERT INTO assay_data (compound, class_name) VALUES
  ('Cc1cccc(-c2noc(-c3cccc(Cl)c3)n2)c1', 'class 1'),
  ('Clc1ccc(-c2noc(-c3ccccc3Cl)n2)cc1', 'class 1');

Attention now turns to another entry.
Task: Kindly determine if proportion of mobile M. hapla J2 recorded for CSc1ccccc1-c1nc(-c2cccnc2)no1 is above or exactly 0.9.
Output: class 1

----------
Reported proportion of mobile C. elegans dauer larvae is given for each of the following compounds.
# System: Caenorhabditis elegans dauer (daf-2(e1370))
# Assay notes: proportion of mobile C. elegans dauer larvae relative to DMSO control (fraction of DMSO control); higher = more viable, less nematicidal, active = 0.63 or less; extreme values may be limits of the assay
# Condition details: 60 µM; 5 days; temperature: 20 °C
Number only, no unit.

Previously resolved entries follow.
INSERT INTO results (structure_smiles, measurement) VALUES
  ('FC(F)(F)c1cccc(-c2noc(-c3ccccc3Cl)n2)c1', 1),
  ('COc1ccc(-c2nnc(SCC(=O)Nc3ccc(Cl)c(Br)c3)o2)cc1', 1),
  ('CCOc1cc(-c2nc(-c3ccccc3C)no2)cc(OCC)c1OCC', 1);

Please find the next compound below.
Task: Requested read-out: proportion of mobile C. elegans dauer larvae. Entry: Cc1ccc(-c2noc(-c3ccc4c(c3)OCCO4)n2)cc1
Output: 0.615

----------
# System: Caenorhabditis elegans dauer (daf-2(e1370))
# Assay notes: proportion of mobile C. elegans dauer larvae relative to DMSO control (fraction of DMSO control); higher = more viable, less nematicidal, active = 0.63 or less; extreme values may be limits of the assay
# Condition details: 60 µM; 5 days; temperature: 20 °C
Parameter call: string, one of Y (active), N (inactive)

Examples from the recorded data:
INSERT INTO measurements (structure_smiles, class_name) VALUES
  ('Cc1csc(NC(=O)CSc2nnc(-c3cccc(Cl)c3)o2)n1', 'N'),
  ('c1ccc(-c2nc(C3CCCCC3)no2)cc1', 'N'),
  ('CCCSc1nnc(-c2ccc(Cl)cc2Cl)o1', 'Y'),
  ('Cc1cccc(-c2nnc(SCC(=O)Nc3ccc(Br)c(C)c3C)o2)c1', 'N');

Task: Just curious, what result did O=C(Nc1ccccc1-c1nc(-c2cccnc2)no1)c1cccs1 get here?
Output: N

----------
# Tested on: Meloidogyne hapla J2
# Assay notes: proportion of mobile M. hapla J2 relative to DMSO control (fraction of DMSO control); higher = more viable, less nematicidal, active = 0.7 or less
# Condition details: 60 µM; 5 days; temperature: 20 °C
Test readout: proportion of mobile M. hapla J2
API doc: respond with a numeric literal and nothing else, no unit.

Use these answered entries as a reference point.
INSERT INTO measurements (structure_smiles, measurement) VALUES
  ('Clc1ccc(-c2nc(-c3ccncc3)no2)cc1Cl', 0.987),
  ('COc1ccccc1-c1nc(-c2ccc(Cl)cc2Cl)no1', 1),
  ('COC(=O)c1ccc(CSc2nnc(-c3ccc(OC)cc3)o2)cc1', 1.02),
  ('CCOc1ccc(NC(=O)CSc2nnc(-c3ccncc3)o2)cc1', 0.897),
  ('Cc1ccc(-c2noc(COc3ccc(C)cc3C)n2)cc1', 1.02),
  ('CC(C)(C)NC(=O)c1ccccc1-c1nc(-c2ccccc2)no1', 0.886),
  ('Cc1ccccc1OCc1nc(-c2ccc3c(c2)OCO3)no1', 0.878),
  ('Clc1ccc(CSc2nnc(-c3ccccc3)o2)cc1Cl', 1.01);

Task: // returns reported proportion of mobile M. hapla J2 for input Cc1ccccc1-c1nc(-c2ccccc2Cl)no1
Output: 0.985

FYI, the data here is from the supplement of paper PMC11219838.
